Recorded values, source patent US9187525B2.

target: T1, natriuretic peptide receptor-B (human)
T1 chain: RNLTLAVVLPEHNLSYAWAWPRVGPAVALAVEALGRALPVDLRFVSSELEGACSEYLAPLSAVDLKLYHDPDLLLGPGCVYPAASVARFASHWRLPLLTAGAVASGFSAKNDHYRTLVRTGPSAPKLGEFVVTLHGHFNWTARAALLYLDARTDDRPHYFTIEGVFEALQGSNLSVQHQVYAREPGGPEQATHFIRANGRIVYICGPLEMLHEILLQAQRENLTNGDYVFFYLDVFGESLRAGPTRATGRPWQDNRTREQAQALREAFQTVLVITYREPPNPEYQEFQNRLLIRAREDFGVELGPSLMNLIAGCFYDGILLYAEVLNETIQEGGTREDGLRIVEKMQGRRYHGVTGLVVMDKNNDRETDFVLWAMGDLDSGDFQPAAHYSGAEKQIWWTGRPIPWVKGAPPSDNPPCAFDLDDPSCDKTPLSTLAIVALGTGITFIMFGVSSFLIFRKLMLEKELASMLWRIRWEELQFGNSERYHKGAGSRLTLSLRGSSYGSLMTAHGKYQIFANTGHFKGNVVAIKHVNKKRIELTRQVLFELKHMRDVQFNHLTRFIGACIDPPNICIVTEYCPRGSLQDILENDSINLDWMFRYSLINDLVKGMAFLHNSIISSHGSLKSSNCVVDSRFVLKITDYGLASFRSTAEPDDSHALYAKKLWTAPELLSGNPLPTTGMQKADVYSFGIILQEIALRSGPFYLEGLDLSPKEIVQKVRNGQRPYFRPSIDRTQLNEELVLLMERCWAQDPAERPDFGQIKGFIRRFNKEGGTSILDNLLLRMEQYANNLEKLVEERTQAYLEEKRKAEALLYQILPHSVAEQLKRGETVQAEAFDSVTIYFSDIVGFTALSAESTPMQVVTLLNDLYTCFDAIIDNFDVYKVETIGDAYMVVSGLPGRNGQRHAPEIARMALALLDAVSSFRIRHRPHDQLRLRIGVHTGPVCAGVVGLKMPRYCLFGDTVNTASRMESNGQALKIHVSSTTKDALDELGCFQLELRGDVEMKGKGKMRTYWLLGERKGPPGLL
test name: cell-based or functional assay
Numbered stars: 1 amine (or outer) side, 2 acyl side, 3 side chain; on linkers, the order of the positions; unused ones are H or OH. Square brackets hold non-standard residues; d marks the D form. Ends that are not written are not given here. Pro(trans-4-NH2) = O=C([C@@H]1C[C@@H](N[*:3])CN1[*:1])[*:2]; Sni = (S)-nipecotic acid, O=C([C@H]1CCCN([*:1])C1)[*:2]; Hyp = O=C(O)[C@@H]1C[C@@H](O)CN1; AR‑385‑042 = not defined here; NMeL = CN[C@@H](CC(C)C)C(=O)O; orn(Me2) = not defined here; Che = not defined here; leu = not defined here; Occ = octanoic acid
experimental readout: EC50 group, cGMP in GTM-3 cells

binder: [Occ][Sni]F[orn(Me2)]L[Pro(trans-4-NH2)][NMeL]VR[Che] (reading uncertain; also: printed as Occ-Sni-Phe-orn(Me2)-Leu-Tap-Nml-Val-Arg-Che) [JAL-1850]
result: ≤ 1 µM
//
binder: [AR‑385‑042][leu]L[Hyp][NMeL]DRI-NH2 (reading uncertain; also: printed as (AR-385-042)-leu-Leu-Hyp-Nml-Asp-Arg-Ile-NH2) [JAL-1880]
result: ≤ 5 µM
